src = ChEMBL document CHEMBL1144808

- Assay: Toxicity against human MIAPaCa2-RFP cells xenografted mouse
- Type: organism-based
Measured MTD by item
Outcome Measure: MTD (mg/kg)

Compound	Value Observed
Cn1c(COP(=O)(NCCBr)NCCBr)cnc1[N+](=O)[O-] [EVOFOSFAMIDE]	100
O=[N+]([O-])c1ccc(COP(=O)(NCCBr)NCCBr)o1	20

* * *

Measured solubility by item
- Assay: Aqueous solubility at 100 mg at pH 7.4
- Type: physicochemical

Molecule	solubility / µg/mL
O=[N+]([O-])c1ccc(COP(=O)(NCCBr)NCCBr)o1	4300
Cn1c(COP(=O)(NCCBr)NCCBr)cnc1[N+](=O)[O-] [EVOFOSFAMIDE]	5900
